System: 233499-124-R-J3-PDC complex spheroid viability
Test: Anticancer human tumor 233499-124-R-J3-PDC patient-derived colon adenocarcinoma cell line growth inhibition [CLK]
Details: second compound 0.1 µM; first compound 3.16 µM; stronger effect = lower value
Quantity kind: viability, T/C (%)
Write it as a number; the unit % goes unstated.

Compound: Nc1ccccc1NC(=O)c1ccc(CNC(=O)OCc2cccnc2)cc1 + CNC(=O)c1ccc(Nc2nc(OC3CCCC3)c3c(-c4ccc5nc(C)oc5c4)c[nH]c3n2)c(OC)c1
Experimental target: 233499-124-R-J3-PDC complex spheroid viability
Measured result: 9.08

Compound: C#Cc1c(F)ccc2cc(O)cc(-c3ncc4c(N5CC6CCC(C5)N6)nc(OCC56CCCN5CC(F)C6)nc4c3F)c12 (stereo not drawn) + CN1CCN(c2cc(C(=O)Nc3cc4cc(-c5cnn(C)c5)ccc4cn3)ccn2)CC1
Experimental target: 233499-124-R-J3-PDC complex spheroid viability
Measured result: 85.7

Here is another compound to look at.
Task: Can you share its viability, T/C? I mean this compound: O=c1[nH]cc(F)c(=O)[nH]1 + CN1CCN(c2cc(C(=O)Nc3cc4cc(-c5cnn(C)c5)ccc4cn3)ccn2)CC1
Output: 28.8

---

Test system: 233499-124-R-J3-PDC complex spheroid viability
Test: Anticancer human tumor 233499-124-R-J3-PDC cell line growth inhibition [CLK]; active = viability on the fitted dose curve at most 10% of control; inactive = the rest;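 note: spheroids exposed to the drug combinations for seven days; percent viability relative to DMSO vehicle control wells taken as 100%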
Conditions: second compound 0.316 µM; first compound 10 µM
Valid outcomes are listed here; reply with one: Y for active, N for inactive

Compound: COC1C=CCC(C)C(C)S(=O)(=O)NC(=O)c2ccc3c(c2)N(CC2CCC21)CC1(CCCc2cc(Cl)ccc21)CO3 (configuration not stated) + CNC(=O)c1ccc(Nc2nc(OC3CCCC3)c3c(-c4ccc5nc(C)oc5c4)c[nH]c3n2)c(OC)c1
Experimental target: 233499-124-R-J3-PDC complex spheroid viability
Label: Y

Query compound follows.
Task: Fill in: this test's call for CC1(C)CCC(CN2CCN(c3ccc(C(=O)NS(=O)(=O)c4ccc(NCC5CCOCC5)c([N+](=O)[O-])c4)c(Oc4cnc5[nH]ccc5c4)c3)CC2)=C(c2ccc(Cl)cc2)C1 + CN1CCN(c2cc(C(=O)Nc3cc4cc(-c5cnn(C)c5)ccc4cn3)ccn2)CC1 is ___
Output: N

---

viability, T/C values for the compounds below.
System: 233499-124-R-J3-PDC complex spheroid viability
Test: Anticancer human tumor 233499-124-R-J3-PDC cell line growth inhibition [CLK];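 note: spheroids exposed to the drug combinations for seven days; percent viability relative to DMSO vehicle control wells taken as 100%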
Settings: second compound 1 µM; first compound 0.0316 µM; stronger effect = lower value

Use these answered entries as a reference point.
Compound: CCN1CCN(Cc2ccc(Nc3ncc(F)c(-c4cc(F)c5nc(C)n(C(C)C)c5c4)n3)nc2)CC1 + CNC(=O)c1ccc(Nc2nc(OC3CCCC3)c3c(-c4ccc5nc(C)oc5c4)c[nH]c3n2)c(OC)c1
viability, T/C: 74.3%
--
Compound: C#Cc1c(F)ccc2cc(O)cc(-c3ncc4c(N5CC6CCC(C5)N6)nc(OCC56CCCN5CC(F)C6)nc4c3F)c12 (stereo not drawn) + CN1CCN(c2cc(C(=O)Nc3cc4cc(-c5cnn(C)c5)ccc4cn3)ccn2)CC1
viability, T/C: 3.8%
--
Compound: CCc1c2c(nc3ccc(O)cc13)-c1cc3c(c(=O)n1C2)COC(=O)[C@]3(O)CC + CN1CCN(c2cc(C(=O)Nc3cc4cc(-c5cnn(C)c5)ccc4cn3)ccn2)CC1
viability, T/C: 0.39%
--
Compound: CCc1c2c(nc3ccc(O)cc13)-c1cc3c(c(=O)n1C2)COC(=O)[C@]3(O)CC + CNC(=O)c1ccc(Nc2nc(OC3CCCC3)c3c(-c4ccc5nc(C)oc5c4)c[nH]c3n2)c(OC)c1
viability, T/C: 40.2%
--
Compound: CC(Nc1ccc2c(c1)OCCn1cc(N3C(=O)OCC3C(F)F)nc1-2)C(N)=O (stereo not drawn) + CNC(=O)c1ccc(Nc2nc(OC3CCCC3)c3c(-c4ccc5nc(C)oc5c4)c[nH]c3n2)c(OC)c1
viability, T/C: 74.8%
--
Compound: CCCS(=O)(=O)Nc1ccc(F)c(C(=O)c2c[nH]c3ncc(-c4ccc(Cl)cc4)cc23)c1F + CN1CCN(c2cc(C(=O)Nc3cc4cc(-c5cnn(C)c5)ccc4cn3)ccn2)CC1
viability, T/C: 1.29%
--
Compound: CC(=O)O[C@H]1C(=O)[C@@]2(C)[C@H]([C@H](OC(=O)c3ccccc3)[C@]3(O)C[C@H](OC(=O)[C@H](O)[C@@H](NC(=O)c4ccccc4)c4ccccc4)C(C)=C1C3(C)C)[C@]1(OC(C)=O)CO[C@@H]1C[C@@H]2O + CN1CCN(c2cc(C(=O)Nc3cc4cc(-c5cnn(C)c5)ccc4cn3)ccn2)CC1
viability, T/C: 0.76%

Task: Recorded viability, T/C for COC1C=CCC(C)C(C)S(=O)(=O)NC(=O)c2ccc3c(c2)N(CC2CCC21)CC1(CCCc2cc(Cl)ccc21)CO3 (stereo not drawn) + CN1CCN(c2cc(C(=O)Nc3cc4cc(-c5cnn(C)c5)ccc4cn3)ccn2)CC1 , please?
Output: 0.62%

---

Tested on: 233499-124-R-J3-PDC complex spheroid viability
Test: Anticancer human tumor 233499-124-R-J3-PDC cell line growth inhibition [CLK]; active means viability on the fitted dose curve at most 10% of control; inactive means the rest;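 note: spheroids exposed to the drug combinations for seven days; percent viability relative to DMSO vehicle control wells taken as 100%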
Details: second compound 10 µM; first compound 10 µM
Write down one outcome, taken from active, inactive

Examples with answers:
Compound: Nc1ccccc1NC(=O)c1ccc(CNC(=O)OCc2cccnc2)cc1 + CN1CCN(c2cc(C(=O)Nc3cc4cc(-c5cnn(C)c5)ccc4cn3)ccn2)CC1
Label: active
--
Compound: COC1C=CCC(C)C(C)S(=O)(=O)NC(=O)c2ccc3c(c2)N(CC2CCC21)CC1(CCCc2cc(Cl)ccc21)CO3 (stereo not given) + CNC(=O)c1ccc(Nc2nc(OC3CCCC3)c3c(-c4ccc5nc(C)oc5c4)c[nH]c3n2)c(OC)c1
Label: active
--
Compound: COc1cccc2c1C(=O)c1c(O)c3c(c(O)c1C2=O)CC(O)(C(=O)CO)CC3OC1CC(N)C(O)C(C)O1 (stereo not given) + CNC(=O)c1ccc(Nc2nc(OC3CCCC3)c3c(-c4ccc5nc(C)oc5c4)c[nH]c3n2)c(OC)c1
Label: active
--
Compound: C=C(F)C(=O)N1CCN(c2nc(OCC3CCCN3C)nc3c2CCN(c2cccc4cccc(Cl)c24)C3)CC1CC#N (stereo not given) + CNC(=O)c1ccc(Nc2nc(OC3CCCC3)c3c(-c4ccc5nc(C)oc5c4)c[nH]c3n2)c(OC)c1
Label: inactive

Task: // outcome(item) with item = CC1COCCN1c1cc(C2(S(C)(=N)=O)CC2)nc(-c2ccnc3[nH]ccc23)n1 (stereo not given) + CNC(=O)c1ccc(Nc2nc(OC3CCCC3)c3c(-c4ccc5nc(C)oc5c4)c[nH]c3n2)c(OC)c1
Output: inactive

---

System: 233499-124-R-J3-PDC complex spheroid viability
Assay: Anticancer human tumor 233499-124-R-J3-PDC cell line growth inhibition [CLK];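 note: spheroids exposed to the drug combinations for seven days; percent viability relative to DMSO vehicle control wells taken as 100%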
Details: second compound 1 µM; first compound 1 µM; stronger effect = lower value
Reported values of viability, T/C for individual entries

Task: Fill in: viability, T/C of Nc1ccn(C2OC(CO)C(O)C2(F)F)c(=O)n1 (stereo not given) + CNC(=O)c1ccc(Nc2nc(OC3CCCC3)c3c(-c4ccc5nc(C)oc5c4)c[nH]c3n2)c(OC)c1 is ___
Output: 9.36%

Task: Same question, CCc1c2c(nc3ccc(O)cc13)-c1cc3c(c(=O)n1C2)COC(=O)[C@]3(O)CC + CNC(=O)c1ccc(Nc2nc(OC3CCCC3)c3c(-c4ccc5nc(C)oc5c4)c[nH]c3n2)c(OC)c1 this time
Output: 5.66%

Task: Same question for CC(=O)O[C@H]1C(=O)[C@@]2(C)[C@H]([C@H](OC(=O)c3ccccc3)[C@]3(O)C[C@H](OC(=O)[C@H](O)[C@@H](NC(=O)c4ccccc4)c4ccccc4)C(C)=C1C3(C)C)[C@]1(OC(C)=O)CO[C@@H]1C[C@@H]2O + CNC(=O)c1ccc(Nc2nc(OC3CCCC3)c3c(-c4ccc5nc(C)oc5c4)c[nH]c3n2)c(OC)c1 please.
Output: 72.5%

Task: What do you have for CC(CO)NC(=O)c1cc(-c2ccc(Cl)cc2)nn(-c2cnn(C)c2)c1=O (stereo not given) + CN1CCN(c2cc(C(=O)Nc3cc4cc(-c5cnn(C)c5)ccc4cn3)ccn2)CC1 ?
Output: 3.75%

Task: What do you have for CC(Nc1ccc2c(c1)OCCn1cc(N3C(=O)OCC3C(F)F)nc1-2)C(N)=O (stereo not given) + CNC(=O)c1ccc(Nc2nc(OC3CCCC3)c3c(-c4ccc5nc(C)oc5c4)c[nH]c3n2)c(OC)c1 ?
Output: 42.7%

Task: Also O=c1[nH]cc(F)c(=O)[nH]1 + CNC(=O)c1ccc(Nc2nc(OC3CCCC3)c3c(-c4ccc5nc(C)oc5c4)c[nH]c3n2)c(OC)c1 ?
Output: 11.4%

Task: Ok, now CC(CO)NC(=O)c1cc(-c2ccc(Cl)cc2)nn(-c2cnn(C)c2)c1=O (stereo not given) + CNC(=O)c1ccc(Nc2nc(OC3CCCC3)c3c(-c4ccc5nc(C)oc5c4)c[nH]c3n2)c(OC)c1
Output: 86.7%

Task: Now give it for C#Cc1c(F)ccc2cc(O)cc(-c3ncc4c(N5CC6CCC(C5)N6)nc(OCC56CCCN5CC(F)C6)nc4c3F)c12 (stereo not given) + CN1CCN(c2cc(C(=O)Nc3cc4cc(-c5cnn(C)c5)ccc4cn3)ccn2)CC1 too.
Output: 9.57%

Task: Would you kindly repeat that for CC1(C)CCC(CN2CCN(c3ccc(C(=O)NS(=O)(=O)c4ccc(NCC5CCOCC5)c([N+](=O)[O-])c4)c(Oc4cnc5[nH]ccc5c4)c3)CC2)=C(c2ccc(Cl)cc2)C1 + CNC(=O)c1ccc(Nc2nc(OC3CCCC3)c3c(-c4ccc5nc(C)oc5c4)c[nH]c3n2)c(OC)c1 ?
Output: 68.4%

Task: Same question, CC1COCCN1c1cc(C2(S(C)(=N)=O)CC2)nc(-c2ccnc3[nH]ccc23)n1 (stereo not given) + CNC(=O)c1ccc(Nc2nc(OC3CCCC3)c3c(-c4ccc5nc(C)oc5c4)c[nH]c3n2)c(OC)c1 this time
Output: 74.1%
